# experiment notes: Solubility of exemplary therapeutic agents in organic solvents
# measurement parameters: solvent Methyl acetate
Where a name gives a salt, the structure may show the parent alone.
reported property: Solubility

A selection of reference data follows.
molecule	Solubility
CN1C[C@H]2c3ccccc3Oc3ccc(Cl)cc3[C@@H]2C1 (relative stereo) [Asenapine maleate]	soluble
O=C(c1ccc(OCCN2CCCCC2)cc1)c1c(-c2ccc(O)cc2)sc2cc(O)ccc12 [Raloxifene HCl]	non-soluble
CNCC[C@H](Oc1cccc2ccccc12)c1cccs1 [Duloxetine HCl]	non-soluble
O=C1CCc2ccc(OCCCCN3CCN(c4cccc(Cl)c4Cl)CC3)cc2N1	soluble

Consider the molecule `CC(C)c1nc(N(C)S(C)(=O)=O)nc(-c2ccc(F)cc2)c1/C=C/[C@@H](O)C[C@@H](O)CC(=O)O` and give its measured Solubility.
soluble

Reported Solubility for OCCOCCN1CCN(C2=Nc3ccccc3Sc3ccccc32)CC1 [Quetiapine fumarate] : what is it?
non-soluble

* * *

# experiment notes: Solubility of exemplary therapeutic agents in organic solvents
# measurement parameters: solvent Triacetin
Structures can show the parent of a compound that is named as a salt.

compound	Solubility
CNCC[C@H](Oc1cccc2ccccc12)c1cccs1 [Duloxetine HCl]	non-soluble
O=C1CCc2ccc(OCCCCN3CCN(c4cccc(Cl)c4Cl)CC3)cc2N1 [Aripiprazole]	non-soluble
OCCOCCN1CCN(C2=Nc3ccccc3Sc3ccccc32)CC1 [Quetiapine fumarate]	non-soluble
CC(C)c1nc(N(C)S(C)(=O)=O)nc(-c2ccc(F)cc2)c1/C=C/[C@@H](O)C[C@@H](O)CC(=O)O [Rosuvastatin Ca]	non-soluble
